System: MOLT-4
Experiment: NCI tumour cell line growth inhibition, 48 h
Calls of active or inactive are those of the source. No stated cut-off is given here; in the data, active = GI50 up to about 1.1 µM and inactive = higher.
Entries and their GI50

{"MOLECULE": "c1ccc(OC2=NC3=S(S2)SC(Oc2ccccc2)=N3)cc1", "GI50": "9.98 µM (inactive)"}
{"MOLECULE": "C=CCSC[C@H](NC(=O)COc1ccccc1)C(=O)NC(C(=O)OCc1ccc([N+](=O)[O-])cc1)=C(C)C", "GI50": "19.8 µM (inactive)"}
{"MOLECULE": "O=C(NNC(=S)NCc1ccccc1)c1csc(NC(=S)NC2CCCCC2)n1", "GI50": "30.3 µM (inactive)"}
{"MOLECULE": "COc1cc2ccnc([C@@H](OC(=O)c3ccccc3)c3ccc(OC)c(OC)c3OC)c2cc1OC", "GI50": "41.6 µM (inactive)"}
{"MOLECULE": "Clc1cc(-c2csc(Cl)c2)cs1", "GI50": "> 100 µM (inactive)"}
{"MOLECULE": "O=C1C(N2CCN(CCOCCO)CC2)=C(Cl)C(=O)c2ncccc21", "GI50": "2.37 µM (inactive)"}
{"MOLECULE": "CCCn1c(SC)nc(COC(=O)NC)c1COC(=O)NC", "GI50": "> 100 µM (inactive)"}
{"MOLECULE": "CSC1=C(C#N)C(=O)N(c2ccc(Cl)cc2)C(=O)C1C#N (stereo unspecified)", "GI50": "97.5 µM (inactive)"}
{"MOLECULE": "COCOc1cc(OC)c(Br)cc1C/C(=N/O)C(=O)OC", "GI50": "27.5 µM (inactive)"}
{"MOLECULE": "Cc1cccc(/C=N/NC(=S)NCc2ccccn2)n1", "GI50": "16.5 µM (inactive)"}
{"MOLECULE": "Cc1ccc2c(c1)C(=O)N1CCC[C@H]1C=N2", "GI50": "18.8 µM (inactive)"}

====

Tested on: LOX IMVI
Experiment: NCI tumour cell line growth inhibition, 48 h
Activity calls are given as the source filed them. Cut-off read from the data, not from the text of the source: active = GI50 up to about 1.1 µM and inactive = higher.
Entries and their GI50
OUTCOME_MEASURE: GI50

{"MOLECULE": "Cc1ccc(I)cc1N=C=S", "ASSAY_VALUE": "22.2 µM (inactive)"}
{"MOLECULE": "COC(=O)c1ccc(/N=N/N(C)COc2ccc(C#N)cc2)cc1", "ASSAY_VALUE": "56.1 µM (inactive)"}
{"MOLECULE": "Nc1nc(=O)c2c([nH]1)NCC(CNc1ccc(C(=O)N[C@@H](CCC(=O)O)C(=O)O)cc1)N2C=O (stereo partly drawn) [LEUCOVORIN CALCIUM]", "ASSAY_VALUE": "> 125 µM (inactive)"}
{"MOLECULE": "O=c1ssc(Cl)c1Nc1c(Cl)ssc1=O", "ASSAY_VALUE": "14.8 µM (inactive)"}
{"MOLECULE": "O=C(NC(=S)Nc1ccccc1)c1ccc([N+](=O)[O-])cc1", "ASSAY_VALUE": "84.1 µM (inactive)"}
{"MOLECULE": "COc1ccc2c(c1)CCN1CCCc3ccc(OC)cc3C21 (stereo not drawn)", "ASSAY_VALUE": "41.2 µM (inactive)"}
{"MOLECULE": "CNC1=Nc2ccccc2C(=O)N2CSCC12 (stereo not drawn)", "ASSAY_VALUE": "> 100 µM (inactive)"}
{"MOLECULE": "c1c[nH]c(-c2cccc3nsnc23)c1", "ASSAY_VALUE": "63.1 µM (inactive)"}
{"MOLECULE": "COc1cccc(Cc2cc(=O)c3ccc(C)nc3[nH]2)c1", "ASSAY_VALUE": "> 100 µM (inactive)"}
{"MOLECULE": "COc1ccc(C[C@@H]2NC[C@@H](O)[C@@H]2OC(C)=O)cc1", "ASSAY_VALUE": "0.00403 µM (active)"}
{"MOLECULE": "COc1ccc(N(C(=O)Nc2ccc(Cl)c(Cl)c2)C2c3cccn3C(=O)N2c2ccc(Cl)c(Cl)c2)cc1 (stereo not drawn)", "ASSAY_VALUE": "15.8 µM (inactive)"}
{"MOLECULE": "Cn1c(=O)c2c(nc(NCCCCl)n2CC(=O)O)n(C)c1=O", "ASSAY_VALUE": "> 100 µM (inactive)"}
{"MOLECULE": "Clc1cc(-c2csc(Cl)c2)cs1", "ASSAY_VALUE": "> 100 µM (inactive)"}
{"MOLECULE": "O=C1C=CC(=O)C(CNc2ccc(C(=O)OC34CC5CC(CC(C5)C3)C4)cc2)=C1Br", "ASSAY_VALUE": "9.48 µM (inactive)"}
{"MOLECULE": "OC(CCN1CCN(CCOC(c2ccccc2)c2ccccc2)CC1)c1ccc(Br)cc1 (stereo not drawn)", "ASSAY_VALUE": "10 µM (inactive)"}
{"MOLECULE": "OC1c2[nH]c3ccccc3c2CCN2CCCCC12 (stereo not drawn)", "ASSAY_VALUE": "> 100 µM (inactive)"}
{"MOLECULE": "COC1[C@H](NC(=O)OC(C)(C)C)C(=O)N1Cc1ccccc1 (stereo partly drawn)", "ASSAY_VALUE": "> 100 µM (inactive)"}
{"MOLECULE": "CCC(C)(O)c1cn(-c2ccc(S(=O)(=O)O)cc2)nn1 (stereo not drawn)", "ASSAY_VALUE": "> 100 µM (inactive)"}
{"MOLECULE": "CC[C@@H]([C@H](O)c1ccccc1Cl)[N+](=O)[O-]", "ASSAY_VALUE": "> 100 µM (inactive)"}
{"MOLECULE": "COc1ccc(/C=C2\\CN(C)C/C(=C\\c3ccc(OC)cc3)C2=O)cc1", "ASSAY_VALUE": "> 100 µM (inactive)"}
{"MOLECULE": "CN1C(=O)N/C(=C\\c2ccc(S(=O)(=O)N/N=C\\C(O)C(O)C(O)CO)cc2)C1=O (stereo not drawn)", "ASSAY_VALUE": "> 100 µM (inactive)"}
{"MOLECULE": "CC#COP(=O)(OCC)OCC", "ASSAY_VALUE": "> 100 µM (inactive)"}
{"MOLECULE": "COC1CCC(OS(C)(=O)=O)C(C)O1 (stereo not drawn)", "ASSAY_VALUE": "> 10 µM (inactive)"}

====

Tested on: MOLT-4
Assay: NCI tumour cell line growth inhibition, 48 h
Activity calls are given as the source filed them. Rule as the data show it: active = GI50 up to about 1.1 µM and inactive = higher.
OUTCOME_MEASURE: GI50

{"MOLECULE": "CCOC(=O)CCC(NC(=O)Cc1ccc(Oc2nc3ccccc3nc2-c2ccccc2)cc1)C(=O)OCC (stereo unspecified)", "TESTED_SYSTEM": "MOLT-4", "ASSAY_VALUE": "> 100 µM (inactive)"}
{"MOLECULE": "C#CCNC(=O)NCCCC(NC(C)=O)C(=O)NCc1ccccc1 (stereo unspecified)", "TESTED_SYSTEM": "MOLT-4", "ASSAY_VALUE": "> 100 µM (inactive)"}
{"MOLECULE": "N#CCCN(CCC#N)c1ccc(C(=N/c2ccc(Cl)cc2)/N=N/c2ccc(Cl)cc2)cc1", "TESTED_SYSTEM": "MOLT-4", "ASSAY_VALUE": "22.5 µM (inactive)"}
{"MOLECULE": "CC1CC(C)C(C#N)N(C)c2ccccc21 (stereo unspecified)", "TESTED_SYSTEM": "MOLT-4", "ASSAY_VALUE": "66.7 µM (inactive)"}
{"MOLECULE": "O=c1[nH]c2nc3ccccc3c(=O)n2/c1=C/c1ccccc1", "TESTED_SYSTEM": "MOLT-4", "ASSAY_VALUE": "95.5 µM (inactive)"}
{"MOLECULE": "O=C1C/C(Br)=C\\c2ccccc2-c2ccccc21", "TESTED_SYSTEM": "MOLT-4", "ASSAY_VALUE": "2.16 µM (inactive)"}
{"MOLECULE": "COc1ccc2c(c1)CCN1CCCc3ccc(OC)cc3C21 (stereo unspecified)", "TESTED_SYSTEM": "MOLT-4", "ASSAY_VALUE": "37.1 µM (inactive)"}
{"MOLECULE": "O=C(O)C1CCC(=O)N1C(=O)C(Cl)c1ccccc1 (stereo unspecified)", "TESTED_SYSTEM": "MOLT-4", "ASSAY_VALUE": "> 100 µM (inactive)"}
{"MOLECULE": "O=c1c2ccccc2nc(Nc2cccc(Cl)c2)n1/N=C/C=C/c1ccccc1", "TESTED_SYSTEM": "MOLT-4", "ASSAY_VALUE": "> 100 µM (inactive)"}
{"MOLECULE": "OCCSCC/C(=N\\N=C(/CCSCCO)c1ccccc1)c1ccccc1", "TESTED_SYSTEM": "MOLT-4", "ASSAY_VALUE": "77.4 µM (inactive)"}
{"MOLECULE": "CCC(C)N1CN(c2ccccc2)C2(CCN(CCCC(=O)c3ccc(F)cc3)CC2)C1=O (stereo unspecified)", "TESTED_SYSTEM": "MOLT-4", "ASSAY_VALUE": "3.92 µM (inactive)"}
